Data provenance: paper PMC11163988

Target: Tg_CA (Toxoplasma gondii α-CA) (Toxoplasma gondii, UniProt S8F479)
Sequence (S8F479 486-829 limits assumed): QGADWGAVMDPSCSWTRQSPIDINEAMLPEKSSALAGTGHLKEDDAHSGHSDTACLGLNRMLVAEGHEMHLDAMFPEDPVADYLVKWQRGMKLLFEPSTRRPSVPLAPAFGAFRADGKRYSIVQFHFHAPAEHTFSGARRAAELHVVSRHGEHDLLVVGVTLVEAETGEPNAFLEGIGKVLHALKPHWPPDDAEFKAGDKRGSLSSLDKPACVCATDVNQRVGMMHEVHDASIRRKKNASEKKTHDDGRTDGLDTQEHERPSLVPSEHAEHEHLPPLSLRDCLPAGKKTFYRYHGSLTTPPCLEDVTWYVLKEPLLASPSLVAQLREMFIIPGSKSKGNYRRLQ
Experiment: biochemical
Type: biochemical
Metric: Ki (mM)
Express the result in mM but write the number alone.

Retrieve Ki measured for OB(O)c1ccccc1 and print it.
5.1

====

Biological target: Tg_CA (Toxoplasma gondii α-CA) (Toxoplasma gondii, UniProt S8F479)
Assay: biochemical
Format: biochemical
Details: pH 7.5; read-out: KI (mM) Tg_CAα
Metric: log10 of Ki (log10 of the value in mM)
For clarity, the numbers are log10 values of Ki expressed in mM.

Report log10 of Ki under test system Tg_CA (Toxoplasma gondii α-CA) (Toxoplasma gondii, UniProt S8F479) for N#CS [SCN^–, thiocyanate] .
1.50

Report log10 of Ki under test system Tg_CA (Toxoplasma gondii α-CA) (Toxoplasma gondii, UniProt S8F479) for OB1OB2OB(O)OB(O1)O2 [B4O7^2–, tetraborate] .
1.81

Report log10 of Ki under test system Tg_CA (Toxoplasma gondii α-CA) (Toxoplasma gondii, UniProt S8F479) for O=S(=O)(O)C(F)(F)F [CF3SO3^–, triflate] .
0.85

Report log10 of Ki under test system Tg_CA (Toxoplasma gondii α-CA) (Toxoplasma gondii, UniProt S8F479) for F[B-](F)(F)F [BF4^–, tetrafluoroborate] .
1.40

Report log10 of Ki under test system Tg_CA (Toxoplasma gondii α-CA) (Toxoplasma gondii, UniProt S8F479) for F[P-](F)(F)(F)(F)F [PF6^–, haxafluorophosphate] .
0.28

Report log10 of Ki under test system Tg_CA (Toxoplasma gondii α-CA) (Toxoplasma gondii, UniProt S8F479) for NS(=O)(=O)O .
-0.17

Report log10 of Ki under test system Tg_CA (Toxoplasma gondii α-CA) (Toxoplasma gondii, UniProt S8F479) for O=[Te](=O)(O)O [TeO4^2–, tellurate] .
0.40

Report log10 of Ki under test system Tg_CA (Toxoplasma gondii α-CA) (Toxoplasma gondii, UniProt S8F479) for O=S(O)O .
0.96

Report log10 of Ki under test system Tg_CA (Toxoplasma gondii α-CA) (Toxoplasma gondii, UniProt S8F479) for CCN(CC)C(=S)S [Et2NCS2^–, N,N-diethyldithiocarbamate] .
0.49

Report log10 of Ki under test system Tg_CA (Toxoplasma gondii α-CA) (Toxoplasma gondii, UniProt S8F479) for [O]=[Ru](=[O])(=[O])=[O] [RuO4^–, perruthenate] .
0.36

Report log10 of Ki under test system Tg_CA (Toxoplasma gondii α-CA) (Toxoplasma gondii, UniProt S8F479) for O=[N+]([O-])O [NO3^–, nitrate] .
0.93

Report log10 of Ki under test system Tg_CA (Toxoplasma gondii α-CA) (Toxoplasma gondii, UniProt S8F479) for O=NO .
0.81

Report log10 of Ki under test system Tg_CA (Toxoplasma gondii α-CA) (Toxoplasma gondii, UniProt S8F479) for [O]=[V]([OH])([OH])[O][V](=[O])([OH])[OH] [V2O7^4–, divanadate] .
1.60

Report log10 of Ki under test system Tg_CA (Toxoplasma gondii α-CA) (Toxoplasma gondii, UniProt S8F479) for O=C(O)O [CO3^2–, carbonate] .
1.99

Report log10 of Ki under test system Tg_CA (Toxoplasma gondii α-CA) (Toxoplasma gondii, UniProt S8F479) for N#CO [CNO^–, cyanate] .
1.70

Report log10 of Ki under test system Tg_CA (Toxoplasma gondii α-CA) (Toxoplasma gondii, UniProt S8F479) for [O-][Cl+3]([O-])([O-])O [ClO4^–, perchlorate] .
1.89

Report log10 of Ki under test system Tg_CA (Toxoplasma gondii α-CA) (Toxoplasma gondii, UniProt S8F479) for O=S(=O)(O)OOS(=O)(=O)O [S2O8^2–, peroxydisulfate] .
1.42

Report log10 of Ki under test system Tg_CA (Toxoplasma gondii α-CA) (Toxoplasma gondii, UniProt S8F479) for O=P(O)(O)OP(=O)(O)O [P2O7^4–, diphosphate] .
1.55

Report log10 of Ki under test system Tg_CA (Toxoplasma gondii α-CA) (Toxoplasma gondii, UniProt S8F479) for [O]=[Re](=[O])(=[O])[OH] [ReO4^–, perrhenate] .
0.53

Report log10 of Ki under test system Tg_CA (Toxoplasma gondii α-CA) (Toxoplasma gondii, UniProt S8F479) for O=S(=O)(O)NS(=O)(=O)O [NH(SO3)2^2–, iminodisulfonate] .
0.93

Report log10 of Ki under test system Tg_CA (Toxoplasma gondii α-CA) (Toxoplasma gondii, UniProt S8F479) for S [HS^–, hydrogensulfide] .
1.66

Report log10 of Ki under test system Tg_CA (Toxoplasma gondii α-CA) (Toxoplasma gondii, UniProt S8F479) for O=S(=O)(O)O [SO4^2–, sulphate] .
0.78
